tested on: NCI/ADR-RES ovarian; test: NCI tumour cell line growth inhibition, 48 h; in the data active = GI50 below about 0.43 µM; inactive = the rest
Thanks in advance; please answer with one of these: active, inactive

Please state the recorded outcome for this compound: "COc1cc(/C=N/O)nc(-c2ccccn2)c1"
active

And then "CN1CCN(c2ccc([N+](=O)[O-])c3no[n+]([O-])c23)CC1" , what is it?
active

And then COc1ccc2nc(C3=CN(C4OC(CO)C(O)C(O)C4O)C4C=CC=CC34)sc2c1 (stereo not given) , what is it?
inactive

Same question for "O=C(Nn1c2c(sc1=NC1CC1)C(=O)c1ccccc1C2=O)c1cc2ccc1CCc1ccc(cc1)CC2" please.
inactive

Similarly, "Cc1ccc(C(=O)Nc2ccccc2C(=O)N/N=C(\c2ccccc2)c2ccccn2)cc1" ?
active
